system: HT-29; experiment: IC50 determination (MTT test), HT-29; assay type: cell-based; conditions: Homo sapiens, colon cancer, 72 h
observedProperty: IC50

CC1(C)C[C@H]2[C@H]1CC[C@]1(C)ON=C(c3ccc(Cl)cc3)[C@H]1CC[C@@]21CC(c2ccc(Cl)cc2)=NO1    > 50 µM

The following molecules each have a reported value; give each one's IC50.
1. CC1=CCCC2(CC(C)=NN2c2ccccc2)C2CC(C)(C)C2CC1 (stereo not shown) [Compound 21a]
2. COc1cccc(OC)c1C1=NN(c2c(Cl)cc(Cl)cc2Cl)[C@]2(CC/C=C(\C)CC[C@@H]3[C@@H]2CC3(C)C)C1 [Compound 23a]

1: 39.4 µM; 2: 45 µM

Query: IC50; subject: COc1ccc(C2=NO[C@]3(CC/C=C(\C)CC[C@@H]4[C@@H]3CC4(C)C)C2)cc1 [Compound 17a]
47.1 µM
